target desc: 5-HT1B (Drosophila melanogaster)
Sequence (P28286 1-617): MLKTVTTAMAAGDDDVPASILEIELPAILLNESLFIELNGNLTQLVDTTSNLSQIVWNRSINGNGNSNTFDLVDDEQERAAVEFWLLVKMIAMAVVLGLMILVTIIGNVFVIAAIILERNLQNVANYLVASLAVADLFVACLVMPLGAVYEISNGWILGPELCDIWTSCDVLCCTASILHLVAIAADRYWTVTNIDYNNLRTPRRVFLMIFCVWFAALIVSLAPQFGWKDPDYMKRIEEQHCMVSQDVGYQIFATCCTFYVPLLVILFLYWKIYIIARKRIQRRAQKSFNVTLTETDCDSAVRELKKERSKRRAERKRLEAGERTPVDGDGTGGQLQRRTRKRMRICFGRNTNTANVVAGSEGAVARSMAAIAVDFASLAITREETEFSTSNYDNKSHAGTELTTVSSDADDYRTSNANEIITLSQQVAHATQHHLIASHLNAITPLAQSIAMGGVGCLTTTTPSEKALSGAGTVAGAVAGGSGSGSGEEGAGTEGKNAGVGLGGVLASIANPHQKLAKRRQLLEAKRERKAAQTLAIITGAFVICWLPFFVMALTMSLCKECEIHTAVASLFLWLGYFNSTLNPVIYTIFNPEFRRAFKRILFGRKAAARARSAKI
protocol summary: Calcium imaging of receptor expressed in HEK-293T cells
measured endpoint: pIC50
# pIC50: negative log10 of molar concentration; output just the value

INPUT: // lookup pIC50 for CSc1ccc2c(c1)C(N1CCN(C)CC1)Cc1ccccc1S2 (stereo not shown) [Metitepine]
OUTPUT: 4.24
